- measurement_target: agonist-bound ERα LBD (Homo sapiens)
- Sequence (P03372 311-547 limits assumed): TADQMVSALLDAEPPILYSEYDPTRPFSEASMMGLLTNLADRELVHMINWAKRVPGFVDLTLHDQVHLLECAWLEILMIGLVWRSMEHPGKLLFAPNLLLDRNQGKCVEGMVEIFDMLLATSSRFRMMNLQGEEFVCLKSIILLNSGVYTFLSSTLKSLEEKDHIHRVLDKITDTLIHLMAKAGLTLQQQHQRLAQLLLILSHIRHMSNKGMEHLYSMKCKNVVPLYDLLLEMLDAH
- method_description: Competition assays of GRIP1 NR Box 2 peptide
- condition_summary: binding to agonist-bound ERα LBD

>  <substance>
H-KHKILHRLLQDSS-OH [GRIP1 NR Box 2 peptide]

>  <IC50>
< 400 nM

$$$$
